# targetUnderTest: H3 hemagglutinin (A/Wyoming/03/2003) (influenza A virus A/Wyoming/03/2003 (H3N2))
# assay: ELISA on coated HA, relative Kd (4-parameter fit)
Recorded Kd values for a group of binders are listed next.
# number then unit; no other words

- binder: "Ab 032 (antibody, V domains shown) VH: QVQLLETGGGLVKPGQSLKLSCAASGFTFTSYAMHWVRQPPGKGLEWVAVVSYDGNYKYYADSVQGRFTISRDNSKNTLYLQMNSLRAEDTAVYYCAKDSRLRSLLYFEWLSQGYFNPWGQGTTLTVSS VL: DIQMTQSPSSLSASVGDRVTITCRSSQSITFNYKNYLAWYQQKPGKAPKLLIYWGSYLESGVPSRFSGSGSGTDFTLTISSLQPEDFATYYCQQHYRTPPSFGQGTKVEIK"
  valueType: "Kd"
  testResult: "0.262 nM"

// Kd lookup, binder = Ab 005 (antibody, V domains shown) VH: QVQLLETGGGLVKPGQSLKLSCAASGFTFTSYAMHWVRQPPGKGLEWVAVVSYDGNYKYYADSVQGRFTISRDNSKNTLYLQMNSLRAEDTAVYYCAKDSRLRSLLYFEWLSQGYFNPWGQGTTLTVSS VL: DIVMTQSPDTVAVTVGERATINCKSSQTVTFNYKNYLAWYQQKPGQPPKLLIYWASTRESGVPDRFSGSGSGTDFTLTISSLQAEDVAVYYCQQHYRTPPSFGQGTKLDIK , result: 0.311 nM
